Data provenance: the supplement of paper PMC9112550

Tested on: Escherichia coli TOP10
RUN_DESCRIPTION: shrunken log2 fold change of peptide-encoding DNA abundance (4.5 h post-induction vs induction); higher = less antimicrobial activity (less host growth inhibition)
CONDITION_DESCRIPTION: time post-induction: 4.5 h; library: site-saturation at positions 5, 18, 19, 20
Rule: shrunken log2 fold change under -0.06 gives Not satisfied, otherwise Satisfied.

QUERY_SEQUENCE	CLASS_LABEL
RRIRVRPPRLPRPRPRPRKTPRP	Satisfied
RRIRGRPPRLPRPRPRPMLLPRP	Satisfied
RRIRLRPPRLPRPRPRPTNMPRP	Not satisfied
RRIRGRPPRLPRPRPRPNNQPRP	Satisfied
RRIRTRPPRLPRPRPRPDFIPRP	Not satisfied
RRIRCRPPRLPRPRPRPWEPPRP	Satisfied
RRIRWRPPRLPRPRPRPTILPRP	Satisfied
RRIRSRPPRLPRPRPRPNMRPRP	Satisfied
RRIRHRPPRLPRPRPRPMMIPRP	Satisfied
RRIRTRPPRLPRPRPRPKKCPRP	Satisfied
RRIRARPPRLPRPRPRPVNNPRP	Not satisfied
RRIRMRPPRLPRPRPRPCHLPRP	Not satisfied
RRIRTRPPRLPRPRPRPKAKPRP	Satisfied
RRIRTRPPRLPRPRPRPKFPPRP	Not satisfied
RRIRIRPPRLPRPRPRPLVRPRP	Satisfied
RRIRYRPPRLPRPRPRPEKFPRP	Satisfied
RRIRWRPPRLPRPRPRPACYPRP	Satisfied
RRIRSRPPRLPRPRPRPAQDPRP	Satisfied
RRIRYRPPRLPRPRPRPKNYPRP	Not satisfied
RRIRSRPPRLPRPRPRPMMNPRP	Satisfied
RRIRIRPPRLPRPRPRPRTPPRP	Satisfied
RRIRNRPPRLPRPRPRPCCMPRP	Satisfied
RRIRLRPPRLPRPRPRPQEFPRP	Satisfied
RRIRIRPPRLPRPRPRPPKLPRP	Satisfied
RRIRDRPPRLPRPRPRPNLFPRP	Satisfied
RRIRFRPPRLPRPRPRPHHSPRP	Not satisfied
RRIRTRPPRLPRPRPRPPDWPRP	Satisfied
RRIRNRPPRLPRPRPRPTSSPRP	Satisfied
RRIRHRPPRLPRPRPRPDCIPRP	Satisfied
RRIRFRPPRLPRPRPRPQTNPRP	Not satisfied
RRIRYRPPRLPRPRPRPLDAPRP	Not satisfied

----------
Tested on: Escherichia coli TOP10
RUN_DESCRIPTION: shrunken log2 fold change of peptide-encoding DNA abundance (4.5 h post-induction vs induction); higher = less antimicrobial activity (less host growth inhibition)
CONDITION_DESCRIPTION: time post-induction: 4.5 h; library: site-saturation at positions 5, 18, 19, 20
EXPERIMENTAL_ENDPOINT: shrunken log2 fold change

QUERY_SEQUENCE	RESULT_NUMBER
RRIRGRPPRLPRPRPRPCRTPRP	0.225
RRIRHRPPRLPRPRPRPTTFPRP	0.0797
RRIRERPPRLPRPRPRPVPCPRP	-0.193
RRIRRRPPRLPRPRPRPCNYPRP	0.159
RRIRFRPPRLPRPRPRPFLTPRP	-0.172
RRIRGRPPRLPRPRPRPWCWPRP	0.682
RRIRTRPPRLPRPRPRPDLGPRP	-0.117
RRIRERPPRLPRPRPRPFFSPRP	-0.358
RRIRIRPPRLPRPRPRPFCVPRP	-0.713
RRIRKRPPRLPRPRPRPSFPPRP	-0.0425
RRIRKRPPRLPRPRPRPGRSPRP	0.256
RRIRTRPPRLPRPRPRPWPHPRP	-0.091
RRIRHRPPRLPRPRPRPCLFPRP	-0.229
RRIRRRPPRLPRPRPRPRQRPRP	0.636
RRIRRRPPRLPRPRPRPNFPPRP	0.46
RRIRFRPPRLPRPRPRPCHTPRP	-0.17
RRIRWRPPRLPRPRPRPMWHPRP	-0.139
RRIRPRPPRLPRPRPRPVPRPRP	0.531
RRIRARPPRLPRPRPRPLPDPRP	1.07
RRIRMRPPRLPRPRPRPSSYPRP	0.236
RRIRYRPPRLPRPRPRPISTPRP	-0.0632
RRIRQRPPRLPRPRPRPLKKPRP	-0.15
RRIRNRPPRLPRPRPRPGWWPRP	-0.0419
RRIRYRPPRLPRPRPRPLWWPRP	-0.696
RRIRNRPPRLPRPRPRPILIPRP	-0.37
RRIRPRPPRLPRPRPRPHTEPRP	0.0462
RRIRGRPPRLPRPRPRPRWPPRP	0.973
RRIRMRPPRLPRPRPRPCFGPRP	-0.23
RRIRHRPPRLPRPRPRPLDYPRP	-0.0824
RRIRKRPPRLPRPRPRPGSEPRP	0.66
RRIRPRPPRLPRPRPRPLWSPRP	-0.0489
RRIRTRPPRLPRPRPRPLGTPRP	-0.145
RRIRMRPPRLPRPRPRPSCYPRP	-0.348
RRIRPRPPRLPRPRPRPMDTPRP	-0.276
RRIRNRPPRLPRPRPRPYCMPRP	-0.776
RRIRERPPRLPRPRPRPRATPRP	0.278
RRIRGRPPRLPRPRPRPYAIPRP	-0.0622
RRIRGRPPRLPRPRPRPDGCPRP	0.792
RRIRFRPPRLPRPRPRPIRGPRP	-0.0057
RRIRHRPPRLPRPRPRPPEIPRP	0.0979
RRIRNRPPRLPRPRPRPNKAPRP	-0.000622
RRIRWRPPRLPRPRPRPERRPRP	0.327
RRIRSRPPRLPRPRPRPHKIPRP	-0.48
RRIRYRPPRLPRPRPRPGRMPRP	-0.642
RRIRWRPPRLPRPRPRPWRRPRP	0.117
RRIRERPPRLPRPRPRPQYYPRP	-0.676
RRIRRRPPRLPRPRPRPTFEPRP	0.358
RRIRYRPPRLPRPRPRPKDSPRP	-0.0869
RRIRDRPPRLPRPRPRPNDQPRP	-0.154
RRIRIRPPRLPRPRPRPAQVPRP	-0.00946
RRIRKRPPRLPRPRPRPGTLPRP	0.0624
RRIRARPPRLPRPRPRPALCPRP	0.637
RRIRCRPPRLPRPRPRPKCWPRP	0.302
RRIRRRPPRLPRPRPRPWFVPRP	0.214
RRIRCRPPRLPRPRPRPWVGPRP	-0.167
RRIRMRPPRLPRPRPRPTPSPRP	1.18
RRIRLRPPRLPRPRPRPVHFPRP	-0.272
RRIRYRPPRLPRPRPRPLDKPRP	-0.0449
RRIRVRPPRLPRPRPRPCNDPRP	-0.437
RRIRNRPPRLPRPRPRPNNDPRP	-0.934
RRIRYRPPRLPRPRPRPNNCPRP	-0.0707
RRIRWRPPRLPRPRPRPGTMPRP	-0.153
RRIRDRPPRLPRPRPRPFPNPRP	-0.503

----------
System: Escherichia coli TOP10
RUN_DESCRIPTION: shrunken log2 fold change of peptide-encoding DNA abundance (4.5 h post-induction vs induction); higher = less antimicrobial activity (less host growth inhibition)
CONDITION_DESCRIPTION: time post-induction: 4.5 h; library: site-saturation at positions 5, 18, 19, 20
Rule: shrunken log2 fold change under -0.008 gives class 0, otherwise class 1.

QUERY_SEQUENCE	TARGET_UNDER_TEST	CLASS_LABEL
RRIRKRPPRLPRPRPRPLMPPRP	Escherichia coli TOP10	class 1
RRIRLRPPRLPRPRPRPYPAPRP	Escherichia coli TOP10	class 0
RRIRKRPPRLPRPRPRPEFWPRP	Escherichia coli TOP10	class 1
RRIRFRPPRLPRPRPRPRPLPRP	Escherichia coli TOP10	class 1
RRIRFRPPRLPRPRPRPVDKPRP	Escherichia coli TOP10	class 0
RRIRQRPPRLPRPRPRPWVPPRP	Escherichia coli TOP10	class 0
RRIRLRPPRLPRPRPRPIEEPRP	Escherichia coli TOP10	class 1
RRIRKRPPRLPRPRPRPAWMPRP	Escherichia coli TOP10	class 1
RRIRRRPPRLPRPRPRPKKSPRP	Escherichia coli TOP10	class 1
RRIRPRPPRLPRPRPRPNHDPRP	Escherichia coli TOP10	class 0
RRIRNRPPRLPRPRPRPCKDPRP	Escherichia coli TOP10	class 0
RRIRCRPPRLPRPRPRPRYEPRP	Escherichia coli TOP10	class 0
RRIRSRPPRLPRPRPRPFGRPRP	Escherichia coli TOP10	class 0
RRIRQRPPRLPRPRPRPLCYPRP	Escherichia coli TOP10	class 0
RRIRWRPPRLPRPRPRPTRWPRP	Escherichia coli TOP10	class 1

----------
System: Escherichia coli TOP10;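 further: peptides expressed intracellularly from a pBAD plasmid library in pooled LB shake-flask culture, induced with 0.3% L-arabinose, DNA abundance read by NGS, three biological replicates, DESeq2 with apeglm shrinkage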
RUN_DESCRIPTION: shrunken log2 fold change of peptide-encoding DNA abundance (4.5 h post-induction vs induction); higher = less antimicrobial activity (less host growth inhibition)
CONDITION_DESCRIPTION: time post-induction: 4.5 h; library: site-saturation at positions 5, 18, 19, 20
Category | rule: reported shrunken log2 fold change within range, see low range = under -0.1, mid range = from -0.1 up to 0.2, high range = 0.2 and over

QUERY_SEQUENCE	CLASS_LABEL
RRIRVRPPRLPRPRPRPVAKPRP	high range
RRIRKRPPRLPRPRPRPNMGPRP	low range
RRIRMRPPRLPRPRPRPVHLPRP	mid range
RRIRLRPPRLPRPRPRPRFLPRP	low range
RRIRCRPPRLPRPRPRPHELPRP	low range
RRIRIRPPRLPRPRPRPREMPRP	mid range
RRIRERPPRLPRPRPRPFFAPRP	high range
RRIRGRPPRLPRPRPRPKVLPRP	mid range
RRIRWRPPRLPRPRPRPVVYPRP	low range
RRIRVRPPRLPRPRPRPRPIPRP	high range
RRIRSRPPRLPRPRPRPQDYPRP	low range
RRIRRRPPRLPRPRPRPTFMPRP	high range
RRIRYRPPRLPRPRPRPSIIPRP	low range
RRIRDRPPRLPRPRPRPPPRPRP	high range
RRIRWRPPRLPRPRPRPQRCPRP	mid range
RRIRLRPPRLPRPRPRPLFSPRP	low range
RRIRARPPRLPRPRPRPGYHPRP	low range
RRIRRRPPRLPRPRPRPFVSPRP	mid range
RRIRWRPPRLPRPRPRPSGHPRP	low range
RRIRNRPPRLPRPRPRPRLAPRP	high range
RRIRNRPPRLPRPRPRPSFCPRP	low range
RRIRRRPPRLPRPRPRPQNQPRP	mid range
RRIRNRPPRLPRPRPRPYVTPRP	low range
RRIRHRPPRLPRPRPRPCWVPRP	mid range
RRIRHRPPRLPRPRPRPARTPRP	mid range
RRIRSRPPRLPRPRPRPPEWPRP	high range
RRIRARPPRLPRPRPRPIFNPRP	mid range
RRIRVRPPRLPRPRPRPTLMPRP	mid range
RRIRTRPPRLPRPRPRPMVPPRP	mid range
RRIRPRPPRLPRPRPRPWEHPRP	mid range
RRIRKRPPRLPRPRPRPPLRPRP	high range
